B1: Pituitary-specific positive transcription factor 1, residues 130 to 198; numbered along this chain, P28069 (parent)
chain: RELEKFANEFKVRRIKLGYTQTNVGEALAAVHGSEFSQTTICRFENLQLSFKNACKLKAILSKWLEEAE

Variants of: B1
experimentNotes: abundance fitness (aPCA) (normalised: wild type 0, dead -1); higher = more abundant; growth selection in yeast, the domain comes from the species named
conditionDescription: Homo sapiens
Use true when the recorded abundance fitness is no lower than -0.3; use false when it is lower.

>>> print(df.to_string())
    mutationdescriptor  assignedlabel
 0                V31W          false
 1                R43P          false
 2                L47D          false
 3                V12H           true
 4                 K5V           true
 5                A59C           true
 6                K52N           true
 7                A30M           true
 8                 K5T           true
 9                R13N          false
10                V31I           true
11                L57T           true
12                 K5R           true
13                F51Q           true
14                A29G          false
15                R13Q           true
16                R13D          false
17                L65R          false
18                A27N          false
19                F51A           true
20                E67N           true
21                K63H           true
22                F44W          false
23                G18R          false
24                W64T          false
25                E45Q          false
26                R13G          false
27                S50F          false
28                F10G          false
29                A59G           true
30                L57F           true
31                 L3E          false
32                L49P          false
33                 K5P          false
34                E66S          false
35                F36N          false
36                L65S          false
37                T22V          false
38                 N8C          false
39                K58G          false
40                S34T           true
41                E45Y          false
42                C55T           true
43                G25I           true
44                 L3V          false
45                Q21A           true
46                L49N          false
47                G25A           true
48                R43T          false
49                 L3C          false
50                L61I          false
51                I60D          false
52                I15R           true
53                L65I           true
54                E35C           true
55                R14P          false
56                A29H           true
57                L57S          false
58                K56Q           true
59                A29F          false
60                F36A          false
61                A30F          false
62                K58L          false
63                K58W          false
64                K11D          false
65                R14Q          false
66                T40M          false
67                K52H           true
68                G18D          false
69                N53A           true
70                 N8S           true
71                Q48T           true
72                L57G          false
